Data origin, for the record: paper PMC12647591

- SYSTEM: L-cysteine desulfidase CyuA (MmCyuA) (Methanococcus maripaludis)
- Sequence (Q6LX84 whole entry): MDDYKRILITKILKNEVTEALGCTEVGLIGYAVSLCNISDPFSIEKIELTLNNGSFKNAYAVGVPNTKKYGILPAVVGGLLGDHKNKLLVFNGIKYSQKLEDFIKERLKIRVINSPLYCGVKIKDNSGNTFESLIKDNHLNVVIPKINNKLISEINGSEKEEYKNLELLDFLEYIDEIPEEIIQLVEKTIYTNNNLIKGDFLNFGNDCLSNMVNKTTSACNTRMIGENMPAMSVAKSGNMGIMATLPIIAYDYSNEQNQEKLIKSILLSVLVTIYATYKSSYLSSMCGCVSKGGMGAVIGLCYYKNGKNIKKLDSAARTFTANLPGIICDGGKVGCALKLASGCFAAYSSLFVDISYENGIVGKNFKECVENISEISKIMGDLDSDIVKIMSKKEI
- PROCEDURE_TEXT: pyruvate formation assay ([…],4-dinitrophenylhydrazine), Lineweaver-Burk and Dixon plots

| MOLECULE | Ki |
| --- | --- |
| N[C@@H](CO)C(=O)O [L-serine] | 15 µM |
